Where do these numbers come from? They come from PubChem BioAssay.

# target entity: Alpha-bungarotoxin (Bungarus multicinctus) (UniProt P60615)
# Sequence (P60615 whole entry, looked up): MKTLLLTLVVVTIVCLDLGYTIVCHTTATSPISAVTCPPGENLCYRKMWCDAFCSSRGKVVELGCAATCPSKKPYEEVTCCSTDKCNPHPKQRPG
# measurement notes: alpha-bungarotoxin binders on microarray, profiling panel, artefact control for SMM control protein annotation, biochemical, small-molecule microarray, Alexa647 label, 635/667 nm fluorescence (AID 1117)
# experimental conditions: alpha-BTX-A647 binding fluorescence, higher = more signal
compounds and their reported composite z-score
measured metric: composite z-score

compound: C=CCOC(=O)[C@H]1[C@@H]2C(=O)O[C@@H](c3ccccc3)[C@@H](c3ccccc3)N2[C@@H](c2ccc(OCCOC(=O)[C@@H]3C[C@@H]4C(=O)N[C@@H](CCCCN(C)C)C(=O)N4[C@@H]3c3ccc(O)cc3)cc2)[C@]12C(=O)Nc1ccccc12
obs value: -0.23

compound: CN(C)CCCCNC(=O)[C@@H]1C[C@@H]2C(=O)N[C@@H](Cc3ccccc3)C(=O)N2[C@@H]1c1cccc(OCCO)c1
obs value: 0.612

compound: CC(CO)N1C(=O)[C@@H]2[C@H]3C(=O)OCC=C[C@H]3OC23C=CCN(Cc2ccccc2)C(=O)[C@@H]13 (stereo partly specified)
obs value: -0.221

compound: COc1ccc([Si](C)(C)[C@@H]2[C@@H](CC(=O)N(CCO)Cc3ccccc3)O[C@]3(C(=O)N(Cc4cccc(N5CCOC5=O)c4)c4ccccc43)[C@H]2C)cc1
obs value: 1.2

compound: COCCOC(=O)N1C(=O)[C@@]2(c3cc(C#CCNC(N)=O)ccc31)[C@H](C(=O)N1CCc3cc(OC)c(OC)cc3C1)[C@H]1C(=O)O[C@H](c3ccccc3)[C@H](c3ccccc3)N1[C@@H]2c1ccccc1OCCO
obs value: 1.85

compound: C=C(C)C1CCC(C(O)C2C=CC3C(=O)N(C)C(=O)C3N2N2CCCCC2)CC1 (stereo unspecified)
obs value: 1.89

compound: CC[C@H]1C2=C3C(CC[C@H]4C(OCc5ccc(F)cc5C(F)(F)F)OC[C@](C)([C@@H]34)N(C(=O)OC(C)(C)C)C2)C(COC)C1COC (stereo partly specified)
obs value: 0.0915

compound: CO[C@H]1O[C@H](CO)[C@@H](OC(=O)Nc2ccc3c(c2)OCO3)[C@H](OC(=O)c2cc3ccccc3[nH]2)[C@H]1OC(=O)c1cc2ccccc2[nH]1
obs value: 0.279

compound: CCOC(=O)C1=CC[C@@H](c2ccccc2C(F)(F)F)N(S(=O)(=O)c2ccc(C)cc2)[C@H]1c1ccc(C#N)cc1
obs value: 0.969

compound: CN(C)CCCNC(=O)[C@@]1(c2ccc([N+](=O)[O-])cc2)CC(=O)N(CC23CC4CC(CC(C4)C2)C3)[C@@H]1c1ccc(CO)cc1I
obs value: 1.15

compound: CC(C)C(CO)N1C(=O)[C@@H]2C3C(=O)OCCC/C=C\[C@H]3OC23C=CCN(C(C)(C)C)C(=O)[C@@H]13 (stereo partly specified)
obs value: -1.54

compound: C=C[C@@H](COC(C)=O)N(C(=O)OC(C)(C)C)S(=O)(=O)c1ccc(Br)cc1
obs value: 1.32

compound: COC(=O)C1=CC(CCCO)=CC(C2CC2)N(C)C=C1C(=O)OC (stereo unspecified)
obs value: -0.24

compound: COc1ccc([Si](C)(C)[C@H]2[C@H](CC(=O)N(CCO)Cc3ccccc3)O[C@@]3(C(=O)N(Cc4cccc(N5CCOC5=O)c4)c4ccccc43)[C@@H]2C)cc1
obs value: 0.429

compound: COC(=O)[C@@]1(Cc2ccc(F)cc2)[C@H]2c3cc(C(=O)N(C)C)n(CCc4ccc(O)c(OC)c4)c3C[C@H]2CN1C(=O)c1ccccc1
obs value: 0.434

compound: CCOC(=O)[C@H]1[C@@H]2C(=O)N3CCC[C@H]3[C@H](O[Si](C(C)C)(C(C)C)C(C)C)[C@H]2C=C2CCN(S(=O)(=O)c3ccc(C)cc3)C[C@H]21
obs value: 0.962

compound: NC(=O)N1C(=O)C2C(C1=O)C1C=C(CCCO)C2C(c2cccs2)N1Cc1cccc(OC(F)(F)F)c1 (stereo unspecified)
obs value: 0.797

compound: CCOC(=O)C[C@H]1[C@H](OC(=O)Cc2ccc3c(c2)OCO3)[C@@H](NC(=O)CC(C)C)c2cc(OCCCO)ccc2N1C(=O)Cc1ccc(OC)cc1
obs value: 1.03

compound: COc1ccc(NC(=O)O[C@H]2[C@H](OC(=O)Nc3ccccc3)[C@H](OC(=O)Nc3ccccc3)[C@@H](OC)O[C@@H]2CO)cc1
obs value: 1.12

compound: O=C1O[C@H](c2ccccc2)[C@H](c2ccccc2)N2[C@H]1[C@@H](C(=O)O)[C@]1(C(=O)Nc3ccc(C#CC4=CCCCC4)cc31)[C@H]2c1ccc(O)cc1
obs value: -0.188

compound: CN1C(=O)C2C=CC(C(O)c3ccc(F)cc3)N(Nc3ccccc3)C2C1=O (stereo unspecified)
obs value: 1.62

compound: COC(=O)c1ccc([C@H](NC(=O)c2ccco2)[C@]2(C)C[C@H]2C2CCCCC2)cc1
obs value: 0.351

compound: COc1ccc(CCNC(=O)[C@@H]2c3ccccc3C(=O)N(Cc3cc(C(F)(F)F)cc(C(F)(F)F)c3)[C@H]2c2ccc(CO)cc2)cc1
obs value: 0.795

compound: COCCOC(=O)N1C(=O)[C@@]2(c3cc(C#CC4=CCCCC4)ccc31)[C@H](c1ccccc1OCCO)N1[C@H](c3ccccc3)[C@H](c3ccccc3)OC(=O)[C@H]1[C@@H]2C(=O)N1CCCCCCC1
obs value: 0.973

compound: Cc1ccc(S[C@]2(C(=O)O)CC(=O)N(Cc3cc(C(F)(F)F)cc(C(F)(F)F)c3)[C@@H]2c2ccc(CO)cc2)cc1
obs value: -0.876

compound: CN(C)CCCNC(=O)[C@@H]1c2ccccc2C(=O)N(Cc2ccccc2Cl)[C@H]1c1ccc(CO)cc1
obs value: 1.74
